Assay: Analytical size exclusion chromatography (percent monomer)
Format: physicochemical
Conditions: NEM-conjugated cysteine variants; SEC, Abs280 monomer region 5.5-6 minutes vs oligomer region 4-5.3 minutes
parameter: Percent monomer (%)
Answer in %, number only, no unit symbol.

• F27C (conjugate, left off: small tags and cut ends) LPAPKNLVVSEVTEDSARLSWDDPWACYESFLIQYQESEKVGEAIVLTVPGSERSYDLTGLKPGTEYTVSIYGVHNVYKDTNMRGLPLSAIFTT = 97

Now for a further molecule.
For the molecule Y28C (conjugate, left off: small tags and cut ends) LPAPKNLVVSEVTEDSARLSWDDPWAFCESFLIQYQESEKVGEAIVLTVPGSERSYDLTGLKPGTEYTVSIYGVHNVYKDTNMRGLPLSAIFTT , what Percent monomer is on record?
92
